Assay: yeast display, Sf9 membrane polyspecificity reagent, FACS + sequencing; frameworks hold sequencing errors
experimental-readout: polyreactivity (PSR sort gate)

Some solved entries appear below for comparison.
>  <sequence-text>
QVQLVESGGGLVQAGGSLRLSCAASGRNFPRNVMGWYRQAPGKERELVAAITGSGSSTYYADSVKGRFTISRDIEKNTVYLQMNSLQPEDTAVYYCATIWRFKLGDYWGQGTQVTVSS

>  <observed-result>
high polyreactivity

$$$$
>  <sequence-text>
QVQLVESGGGLVQAGGSLRLSCAASGRIFRRYAMGWYRQAPGKERELVAAISSGGSTYYADSVKGRFTISRDNAKNTVYLQMNSLKPEDTAVYYCNAIVGAYLNYGYWGQGTQVTVSS

>  <observed-result>
low polyreactivity

$$$$
>  <sequence-text>
QVQLVESGGGLVQAGGSLRLSCAASGRTFPSYVMGWYRQAPGKERELVAAINNGVSTNYADSVKGRYTISRDNAKNTVYLQMNSLNPEDTADYYCAAEVVAQMNYCGQGTQVTVSS

>  <observed-result>
low polyreactivity

$$$$
>  <sequence-text>
QVQLLQTGGGLVQAGGSLRLSCAASGRIFVVNAMGWNRLAPGKEREMVADISSGVSTNYADSVKGRFTISRDNAKNTVYLQMNILKPEDTALYYCNSRFRFRYKFPSRNSWGQGTLVTVSS

>  <observed-result>
high polyreactivity

$$$$
>  <sequence-text>
QVQLVESGGGLVQAGGSLRLSCAASGSIFNAYAMGWYRQAPGKERELVAVISRPGGSTYYADSVKGRFTISRDNAKNTVYLQMNSLKPEDTAVYYCNVYYPYKHRYYHLDYWGQGTQVTVSS

>  <observed-result>
high polyreactivity

$$$$
>  <sequence-text>
QVQLVESGGGLVQAGGSLRLSCAASGIIFFSYAMGWYRQAPGKERELVAAISGTGGNTYYADSVKGRFTISRDNAKNTVYLQMNSLKPEDTAVYYCAADQEWYYYFDSFAYYILGYWGQGTQVTVSS

>  <observed-result>
high polyreactivity

$$$$
>  <sequence-text>
QVQLVESGGGLVQAGGSLRLSCAASGSTFRSNAMGWYRQAPGKERELVAAIRYSGGSTYYADSVKGRFTISRDNAKNTVYLQMNSLKQEDTAVYYCATRFRTYYVDHGYWGQGTQVTVSS

>  <observed-result>
high polyreactivity

$$$$
>  <sequence-text>
QVQLVESGGGLVLAGGSLRLSCAASGSIFQPNAMGWYRQAPGKERELVASIRGRGGDTYYADSVKGRFTISRDNAKNSVYLQMNSLKPEDTAVDYCAADYRWGQGTQVTVSS

>  <observed-result>
low polyreactivity

$$$$

Indicate its recorded polyreactivity (PSR sort gate); the sequence in question is `QVQLVESGGGLVQAGGSLRLSCAASGRTGVNAMGWYRQAPGKERGLVAAINTSVGRTYYADSVKGRFTISRDNAKNTVYLQMNSLKQEDTAVYYCNTDRLGAARYDYWGHGTQVTVSS`
low polyreactivity

Indicate its recorded polyreactivity (PSR sort gate); the sequence in question is `QVQLVESGGGLVQAGGSLRLRWAASGFIFGYYPMGWYRPAPGKERELVAAINSSGGSTYYADSVKGRFTISRDNAKNTVYLQMNSLKPADTAVYYCAARAYQRGIYWGQGTQVTLSS`
high polyreactivity

Indicate its recorded polyreactivity (PSR sort gate); the sequence in question is `QVQLVESGGGLVQAGGSLRLSCASSGGTFPYYAMGWYRQAPGKERELVAAINYSCGSTYYADSVKGRFTISRDNAQYTVYLQMTSLKPEDTAVFYCAARYQFYRYDSTYSYWGQGTQVTVSS`
high polyreactivity
